- ASSAY_SYSTEM: LRP6 (recombinant human LRP-6, Fc chimera) (Homo sapiens) (UniProt O75581)
- Sequence: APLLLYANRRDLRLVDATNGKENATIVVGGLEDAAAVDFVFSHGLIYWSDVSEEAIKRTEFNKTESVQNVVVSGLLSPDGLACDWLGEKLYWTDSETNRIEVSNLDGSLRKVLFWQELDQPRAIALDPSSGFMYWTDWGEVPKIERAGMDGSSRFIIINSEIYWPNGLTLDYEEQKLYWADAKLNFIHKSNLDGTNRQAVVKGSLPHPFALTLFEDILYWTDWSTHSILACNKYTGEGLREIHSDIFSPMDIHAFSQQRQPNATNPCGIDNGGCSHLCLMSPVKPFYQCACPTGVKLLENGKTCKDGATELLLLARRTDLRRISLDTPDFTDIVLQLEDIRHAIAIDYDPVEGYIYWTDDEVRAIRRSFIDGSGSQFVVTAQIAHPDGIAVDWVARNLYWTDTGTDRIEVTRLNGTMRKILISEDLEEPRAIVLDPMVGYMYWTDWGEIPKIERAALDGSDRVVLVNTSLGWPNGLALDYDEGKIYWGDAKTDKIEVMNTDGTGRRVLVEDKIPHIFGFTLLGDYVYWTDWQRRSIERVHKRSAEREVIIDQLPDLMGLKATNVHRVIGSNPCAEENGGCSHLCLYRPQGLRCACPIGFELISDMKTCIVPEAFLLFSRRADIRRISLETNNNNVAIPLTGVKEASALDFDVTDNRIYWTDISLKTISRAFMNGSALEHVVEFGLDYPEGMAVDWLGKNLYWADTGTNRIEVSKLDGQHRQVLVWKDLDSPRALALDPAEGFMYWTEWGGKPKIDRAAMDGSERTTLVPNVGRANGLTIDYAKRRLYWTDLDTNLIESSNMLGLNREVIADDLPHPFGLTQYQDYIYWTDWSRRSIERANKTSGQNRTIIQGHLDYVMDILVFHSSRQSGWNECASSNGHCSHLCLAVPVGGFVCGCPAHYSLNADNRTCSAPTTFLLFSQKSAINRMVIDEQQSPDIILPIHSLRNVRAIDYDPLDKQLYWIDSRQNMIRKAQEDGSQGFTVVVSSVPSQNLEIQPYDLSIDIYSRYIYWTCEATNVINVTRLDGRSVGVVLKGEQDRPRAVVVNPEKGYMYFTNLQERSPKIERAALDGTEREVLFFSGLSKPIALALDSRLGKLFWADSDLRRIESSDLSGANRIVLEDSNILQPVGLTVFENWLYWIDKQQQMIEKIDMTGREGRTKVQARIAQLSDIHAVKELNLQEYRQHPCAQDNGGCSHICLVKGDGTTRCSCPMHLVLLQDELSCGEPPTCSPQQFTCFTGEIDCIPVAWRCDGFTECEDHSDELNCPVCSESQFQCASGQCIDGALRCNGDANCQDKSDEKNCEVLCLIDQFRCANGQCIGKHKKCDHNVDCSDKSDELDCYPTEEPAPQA
- TEST_PROTOCOL: SPR
- PROTOCOL_CONDITIONS: CE-LIF: incubation pH 8.0, 0.155% glutathione, 0.395% Tris-HCl; running buffer 50 mM borate pH 7.6, 20 kV, 25 C (CE-SELEX conditions). SPR: PBST pH 7.4, 0.05% …
pKd: −log10 of the molar value.

>  <MONOMER_SEQUENCE>
AGCAGCACAGAGGTCAGATGGCCACATTAGTCTCACCACTACCTGCGTACCTACCGCCGCCCTATGCGTGCTACCGTGAA [AptLRP6-A2]

>  <ASSAY_SYSTEM>
LRP6 (recombinant human LRP-6, Fc chimera) (Homo sapiens) (UniProt O75581)

>  <pKd>
6.76

$$$$
>  <MONOMER_SEQUENCE>
AGCAGCACAGAGGTCAGATGCCGCAGGCAGCTGCCATTAGTCTCTATCCGTGACGGTATGCCTATGCGTGCTACCGTGAA [AptLRP6-A1]

>  <ASSAY_SYSTEM>
LRP6 (recombinant human LRP-6, Fc chimera) (Homo sapiens) (UniProt O75581)

>  <pKd>
7.87

$$$$
>  <MONOMER_SEQUENCE>
AGCAGCACAGAGGTCAGATGGCAGCTAAGCAGGCGGCTCACAAAACCATTCGCATGCGGCCCTATGCGTGCTACCGTGAA [AptLRP6-A3]

>  <ASSAY_SYSTEM>
LRP6 (recombinant human LRP-6, Fc chimera) (Homo sapiens) (UniProt O75581)

>  <pKd>
7.59

$$$$
>  <MONOMER_SEQUENCE>
AGCAGCACAGAGGTCAGATGCGACTTGCCTATCGGCATGACACAATCTTTTGGAGCGTAACCTATGCGTGCTACCGTGAA [AptLRP6-A4]

>  <ASSAY_SYSTEM>
LRP6 (recombinant human LRP-6, Fc chimera) (Homo sapiens) (UniProt O75581)

>  <pKd>
7.29

$$$$
